The values you see were collected from PubChem BioAssay AID1159580.

- method-summary: chemical genetic growth profiling, strain panel (AID 1159580);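 note: tested at 20 µM; growth read once vehicle control cultures reached saturation at 30 °C; 1 = growth at the plate median or of vehicle wells; lower values mean less growth of the strain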
- settings: S. cerevisiae deletion strains, growth OD, locus YGL167C, strain pmr1, stronger effect = lower value
Out of some 5,500 compounds screened, about 2,000 (36%) were called active. About 18% were inconclusive and are not listed. The list shows a part of the results.
observation-type: normalized growth

>>> test_result("COc1cc2c(cc1OC)C(=O)OC2")
0.984
>>> test_result("COc1ccc2c(c1)O[C@@H]1COc3cc(OC)c(OC)cc3[C@@H]1C2=O")
0.974
>>> test_result("COc1cc2c(cc1OC)Cc1cc(OC)c(OC)cc1Cc1cc(OC)c(OC)cc1C2")
1.04
>>> test_result("OCCN1C[C@@H](O)[C@@H](O)C(O)C1CO (stereo not given in full)")
1.01
>>> test_result("c1cncc(C2CCCCN2)c1 (stereo not given)")
0.989
>>> test_result("CCOC(=O)[C@H](CCc1ccccc1)N[C@H]1CCc2ccccc2N(CC(=O)O)C1=O")
0.983
>>> test_result("CC1=C(/C=C/C(C)=C/C=C/C(C)=C/C=C/C=C(C)/C=C/C=C(C)/C=C/C2=C(C)C(=O)C(O)CC2(C)C)C(C)(C)CC(O)C1=O (stereo not given)")
1.04
>>> test_result("CCOC(=O)CCC(=O)O[C@H]1[C@H](O[C@@H]2[C@@H](C)[C@H](O[C@H]3C[C@@](C)(OC)[C@@H](O)[C@H](C)O3)[C@@H](C)C(=O)O[C@H](CC)[C@@](C)(O)[C@H](O)[C@@H](C)C(=O)[C@H](C)C[C@@]2(C)O)O[C@H](C)C[C@@H]1N(C)C")
1
>>> test_result("O=C1C=CC(=C(c2ccc(O)cc2)c2ccc(O)cc2)C=C1")
0.994
>>> test_result("COc1ccc2c(c1OC)C(=O)O[C@H]2[C@H]1c2cc3c(cc2CCN1C)OCO3")
0.997
>>> test_result("C=Cc1c2[nH]c(c1C)C=c1[nH]c(c(C)c1C=C)=CC1N=C(C=c3[nH]c(c(C)c3CCC(=O)O)=C2)C(CCC(=O)O)=C1C (stereo not given)")
1.02
>>> test_result("NC(=O)c1ccc[n+]([C@@H]2O[C@H](COP(=O)([O-])OP(=O)(O)OC[C@H]3O[C@@H](n4cnc5c(N)ncnc54)[C@H](O)[C@@H]3O)[C@@H](O)[C@H]2O)c1")
1.04
>>> test_result("CN(C)c1ccc(C(=C2C=CC(=[N+](C)C)C=C2)c2ccc(N(C)C)cc2)cc1")
0.59
>>> test_result("O=C(O)c1cc2ccccc2[nH]1")
0.993
>>> test_result("CN[C@@H](C)[C@@H](O)c1ccccc1")
1
>>> test_result("CC(N)C(=O)OC(C)(C)Cc1ccc(Cl)cc1 (stereo not given)")
1.01
>>> test_result("COc1cc2c(cc1OC)[C@@H]1C(=O)c3ccc4c(c3O[C@@H]1CO2)C=CC(C)(C)O4")
1
>>> test_result("CCCCCCNC(=O)n1cc(F)c(=O)[nH]c1=O")
0.918
>>> test_result("CCOC(=O)C(C)(C)Oc1ccc(Cl)cc1")
0.975
>>> test_result("CC1=C(CC(=O)O)c2cc(F)ccc2/C1=C\\c1ccc(S(C)=O)cc1 (stereo not given)")
1.03
